systemName: PI3K β (p110β/p85α) (Homo sapiens)
Construct: purchased Upstate / Millipore Corporation
Sequence (P42338 whole entry): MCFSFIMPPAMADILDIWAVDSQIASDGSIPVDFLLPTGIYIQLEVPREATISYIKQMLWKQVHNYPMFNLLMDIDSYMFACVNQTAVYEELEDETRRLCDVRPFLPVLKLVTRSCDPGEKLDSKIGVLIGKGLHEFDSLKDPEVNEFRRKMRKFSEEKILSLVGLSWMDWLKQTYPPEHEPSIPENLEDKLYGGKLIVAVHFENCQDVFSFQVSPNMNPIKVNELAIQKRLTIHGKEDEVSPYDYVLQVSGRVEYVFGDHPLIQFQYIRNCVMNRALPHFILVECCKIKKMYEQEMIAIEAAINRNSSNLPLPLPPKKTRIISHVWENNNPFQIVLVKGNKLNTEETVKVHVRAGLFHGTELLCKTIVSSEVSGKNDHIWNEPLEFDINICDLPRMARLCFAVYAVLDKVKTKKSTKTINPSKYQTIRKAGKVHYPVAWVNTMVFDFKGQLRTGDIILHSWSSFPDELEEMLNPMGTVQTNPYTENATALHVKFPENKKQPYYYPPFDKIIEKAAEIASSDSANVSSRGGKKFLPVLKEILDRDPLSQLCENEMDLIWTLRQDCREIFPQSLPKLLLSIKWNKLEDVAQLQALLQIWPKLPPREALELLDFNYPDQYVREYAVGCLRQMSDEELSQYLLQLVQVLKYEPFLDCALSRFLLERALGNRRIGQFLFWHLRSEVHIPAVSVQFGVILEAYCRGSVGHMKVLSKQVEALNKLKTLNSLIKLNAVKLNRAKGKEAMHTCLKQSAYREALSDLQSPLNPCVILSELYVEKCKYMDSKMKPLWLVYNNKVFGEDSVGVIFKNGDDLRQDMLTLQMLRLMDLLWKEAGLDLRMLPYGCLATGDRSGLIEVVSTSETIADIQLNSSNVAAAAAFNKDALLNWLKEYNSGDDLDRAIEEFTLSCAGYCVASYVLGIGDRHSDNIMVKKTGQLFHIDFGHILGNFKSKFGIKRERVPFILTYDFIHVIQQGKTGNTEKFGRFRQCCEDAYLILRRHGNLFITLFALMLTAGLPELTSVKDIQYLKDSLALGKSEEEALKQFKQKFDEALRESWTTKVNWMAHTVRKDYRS
Sequence (P27986 whole entry partner): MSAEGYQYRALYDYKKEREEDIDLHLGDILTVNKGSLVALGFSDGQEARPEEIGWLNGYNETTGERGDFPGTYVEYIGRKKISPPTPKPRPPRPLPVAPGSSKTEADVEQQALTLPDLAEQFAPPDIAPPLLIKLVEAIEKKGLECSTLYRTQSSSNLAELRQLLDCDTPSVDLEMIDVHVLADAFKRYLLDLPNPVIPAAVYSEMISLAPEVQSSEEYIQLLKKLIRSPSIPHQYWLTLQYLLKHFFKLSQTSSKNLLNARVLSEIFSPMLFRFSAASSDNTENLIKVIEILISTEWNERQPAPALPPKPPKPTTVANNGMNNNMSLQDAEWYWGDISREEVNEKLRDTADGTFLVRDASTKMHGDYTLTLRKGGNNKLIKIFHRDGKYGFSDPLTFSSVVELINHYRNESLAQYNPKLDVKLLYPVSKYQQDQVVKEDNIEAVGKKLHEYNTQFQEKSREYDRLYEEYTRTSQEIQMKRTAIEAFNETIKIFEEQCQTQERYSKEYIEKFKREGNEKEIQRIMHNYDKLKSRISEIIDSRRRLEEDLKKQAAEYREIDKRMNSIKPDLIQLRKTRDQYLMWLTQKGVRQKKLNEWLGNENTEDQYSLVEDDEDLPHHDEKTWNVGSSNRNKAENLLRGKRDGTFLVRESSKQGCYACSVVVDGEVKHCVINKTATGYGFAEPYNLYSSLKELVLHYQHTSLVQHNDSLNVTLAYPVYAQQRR
test: PI 3-Kinase (human) HTRF assay, PI3K β
Type: biochemical
conditionContext: read-out: PI3K β IC50
pIC50: −log10 of the molar value.
observable: pIC50

>>> result("Nc1ccc2cc(-c3ccc4nccc(-c5ccncc5)c4c3)ccc2n1")
"< 5.00"
>>> result("Nc1nc2cc(-c3ccc4ncc(C(=O)N5CCC(N)CC5)n4c3)ccc2o1")
"> 6.00"
>>> result("C[C@@H]1CN(C(=O)c2cnc3ccc(-c4ccc5oc(N)nc5c4)cn23)C[C@H](C)O1")
"< 5.00"
>>> result("CC(C)(N)C(=O)N1CCN(c2cnc3ccc(-c4ccc5oc(N)nc5c4)cc3n2)CC1")
"> 6.00"
>>> result("Nc1nc2cc(-c3ccc4ncc(-c5cccnc5)n4n3)ccc2o1")
"> 7.00"
>>> result("Nc1nc2cc(-c3cn4c(-c5ccncc5)cnc4cn3)ccc2o1")
"> 5.00"
>>> result("CS(=O)(=O)N1CCN(C(=O)c2cnc3ccc(-c4ccc5oc(N)nc5c4)cn23)CC1")
"< 5.00"
>>> result("Nc1nc2cc(-c3ccc4ncc(-c5ccncc5)n4c3)ccc2o1")
"> 5.00"
>>> result("Nc1nc2cccc(-c3ccc4nccc(-c5ccncc5)c4c3)c2s1")
"> 6.00"
>>> result("CC(=O)Nc1nc(C)c(-c2ccc3oc(N)nc3c2)s1")
"> 5.00"
>>> result("CCOC(=O)N1CCN(c2cnc3ccc(-c4ccc5oc(N)nc5c4)cc3n2)CC1")
"> 5.00"
>>> result("C[C@H]1CN(c2cnc3ccc(-c4cccc5c(N)nsc45)cc3n2)CCN1")
"< 5.00"
>>> result("CN1CCN(CCc2nnc3ccc(-c4ccc5nc(N)oc5c4)cn23)CC1")
"< 5.00"
>>> result("C[C@H]1CCCN1C(=O)c1cnc2ccc(-c3ccc4oc(N)nc4c3)cn12")
"< 5.00"
>>> result("CC(C)n1cnc2ccc(-c3ccc4oc(N)nc4c3)cc2c1=O")
"< 5.00"
>>> result("CC(=O)Nc1n[nH]c2ccc(-c3ccc4oc(N)nc4c3)cc12")
"< 5.00"
>>> result("CNS(=O)(=O)c1cccc(-c2ccc3ncc(C(=O)N4CCOCC4)n3c2)c1")
"< 5.00"
>>> result("Cc1ncc(-c2ccc3ncc(C(=O)N4CCOCC4)n3c2)c2cc[nH]c12")
"< 5.00"

====

Listing of entries alongside the reported pIC50.
systemName: PI3K α (p110α/p85α) (Homo sapiens)
Construct: purchased Upstate / Millipore Corporation
Sequence (P42336 whole entry): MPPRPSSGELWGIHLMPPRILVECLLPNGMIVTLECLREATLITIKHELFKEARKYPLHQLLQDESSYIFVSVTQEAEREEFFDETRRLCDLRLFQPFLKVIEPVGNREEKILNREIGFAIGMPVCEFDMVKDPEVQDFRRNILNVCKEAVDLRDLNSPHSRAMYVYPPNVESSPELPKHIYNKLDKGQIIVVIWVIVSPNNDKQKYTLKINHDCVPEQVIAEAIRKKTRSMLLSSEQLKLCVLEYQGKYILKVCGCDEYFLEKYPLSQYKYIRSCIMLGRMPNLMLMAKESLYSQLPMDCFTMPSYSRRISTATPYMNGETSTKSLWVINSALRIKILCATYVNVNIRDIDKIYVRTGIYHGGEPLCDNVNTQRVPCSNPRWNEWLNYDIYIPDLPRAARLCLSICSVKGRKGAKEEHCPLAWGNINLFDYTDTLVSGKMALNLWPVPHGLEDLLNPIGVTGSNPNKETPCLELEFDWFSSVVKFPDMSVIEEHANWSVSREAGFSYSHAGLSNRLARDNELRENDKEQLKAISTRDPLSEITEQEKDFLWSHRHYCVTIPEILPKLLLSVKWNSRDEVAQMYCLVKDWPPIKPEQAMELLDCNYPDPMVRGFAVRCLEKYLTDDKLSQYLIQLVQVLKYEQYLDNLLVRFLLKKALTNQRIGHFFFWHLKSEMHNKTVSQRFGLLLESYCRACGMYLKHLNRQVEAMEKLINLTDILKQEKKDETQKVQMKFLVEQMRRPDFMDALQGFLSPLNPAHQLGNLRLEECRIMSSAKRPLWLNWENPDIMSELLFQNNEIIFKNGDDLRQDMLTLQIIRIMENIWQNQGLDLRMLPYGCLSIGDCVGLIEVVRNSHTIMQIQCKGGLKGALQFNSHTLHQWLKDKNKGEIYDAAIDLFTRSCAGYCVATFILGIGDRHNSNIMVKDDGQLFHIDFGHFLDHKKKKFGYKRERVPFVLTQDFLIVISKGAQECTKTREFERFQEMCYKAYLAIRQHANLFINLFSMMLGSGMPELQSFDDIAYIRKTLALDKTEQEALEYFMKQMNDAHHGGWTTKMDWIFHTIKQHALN
Sequence (P27986 whole entry partner): as the sequence (P27986 whole entry partner) above
test: PI 3-Kinase (human) HTRF assay, PI3K α
Assay type: biochemical
conditionContext: read-out: PI3K α IC50
pIC50: −log10 of the molar value.
observable: pIC50

>>> result("Nc1ncc(-c2ccc3oc(N)nc3c2)cn1")
"< 5.00"
>>> result("NC(=O)[C@H]1CCCN1C(=O)c1cnc2ccc(-c3ccc4oc(N)nc4c3)cn12")
"> 6.00"
>>> result("Cc1cc2oc(N)nc2cc1-c1ccc2ncc(C(=O)N3CCOCC3)n2c1")
"< 5.00"
>>> result("Nc1nc2cc(-c3ccc4ncc(N5CCN(CC6CC6)CC5)nc4c3)ccc2o1")
"> 7.00"
>>> result("Cc1cc(-c2ccc3nc(N)oc3c2)cn2c(C(=O)N3CCOCC3)cnc12")
"> 6.00"
>>> result("C[C@H]1CN(c2cnc3ccc(-c4ccc5oc(N)nc5c4)cc3c2)CCN1")
"> 7.00"
>>> result("Nc1nc2cc(-c3ccc4ncc(N5CC(N6CCOCC6)C5)nc4c3)cc(Cl)c2o1")
"> 7.00"
>>> result("Cc1cc(-c2ccc3nc(N)oc3c2)cn2c(N3CCN(C)CC3)nnc12")
"< 5.00"

====

systemName: PI3K γ (p110γ) (Homo sapiens)
Construct: purchased Upstate / Millipore Corporation
Sequence (P48736 whole entry): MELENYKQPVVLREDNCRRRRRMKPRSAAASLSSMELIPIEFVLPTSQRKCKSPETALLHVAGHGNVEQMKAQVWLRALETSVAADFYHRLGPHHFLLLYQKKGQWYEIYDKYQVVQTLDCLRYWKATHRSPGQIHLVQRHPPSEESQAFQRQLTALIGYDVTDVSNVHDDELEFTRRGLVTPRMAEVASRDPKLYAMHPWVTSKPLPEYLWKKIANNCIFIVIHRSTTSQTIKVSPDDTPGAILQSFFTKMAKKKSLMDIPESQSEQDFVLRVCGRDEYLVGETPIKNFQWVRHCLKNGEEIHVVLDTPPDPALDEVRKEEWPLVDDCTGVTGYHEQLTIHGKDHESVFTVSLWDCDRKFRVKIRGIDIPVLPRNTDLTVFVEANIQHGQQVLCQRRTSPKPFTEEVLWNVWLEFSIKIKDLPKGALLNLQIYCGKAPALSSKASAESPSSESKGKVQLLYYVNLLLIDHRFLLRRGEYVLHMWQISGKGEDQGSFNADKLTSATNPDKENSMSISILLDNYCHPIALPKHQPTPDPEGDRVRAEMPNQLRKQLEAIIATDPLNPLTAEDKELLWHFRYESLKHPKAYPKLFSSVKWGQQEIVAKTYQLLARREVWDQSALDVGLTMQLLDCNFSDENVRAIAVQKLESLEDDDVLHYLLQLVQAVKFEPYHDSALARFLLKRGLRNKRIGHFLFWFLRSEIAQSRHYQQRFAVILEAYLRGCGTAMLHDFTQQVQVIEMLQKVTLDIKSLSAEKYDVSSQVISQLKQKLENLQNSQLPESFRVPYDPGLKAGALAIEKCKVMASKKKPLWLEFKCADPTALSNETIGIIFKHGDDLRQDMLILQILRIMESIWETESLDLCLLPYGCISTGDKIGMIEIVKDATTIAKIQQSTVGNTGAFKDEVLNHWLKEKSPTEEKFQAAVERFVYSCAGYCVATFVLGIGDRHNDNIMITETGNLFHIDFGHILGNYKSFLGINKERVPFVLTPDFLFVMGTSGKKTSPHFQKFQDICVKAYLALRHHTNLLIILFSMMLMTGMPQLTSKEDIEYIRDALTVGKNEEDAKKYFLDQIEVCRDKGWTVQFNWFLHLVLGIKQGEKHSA
test: PI 3-Kinase (human) HTRF assay, PI3K γ
Format: biochemical
conditionContext: Table 4 (PI3K α inhibitors); read-out: PI3K γ IC50
observable: IC50

>>> result("Nc1nc2cc(-c3ccc4ncc(N5CC(N6CCN(C7CC7)CC6)C5)cc4n3)ccc2o1")
"< 1000 nM"
>>> result("CS(=O)(=O)N1CCN(C2CN(c3cnc4ccc(-c5ccc6oc(N)nc6c5)nc4n3)C2)CC1")
"< 1000 nM"
>>> result("NCC(=O)N1CCN(c2cnc3ccc(-c4ccc5oc(N)nc5c4)nc3c2)CC1")
"< 1000 nM"
>>> result("Nc1nc2cc(-c3ccc4ncc(N5CCOCC5)cc4n3)ccc2o1")
"< 100 nM"
>>> result("C[C@H]1CN(c2cnc3ccc(-c4ccc5oc(N)nc5c4)nc3c2)CCN1")
"< 1000 nM"
>>> result("CC(C)N1CCN(c2cnc3ccc(-c4ccc5oc(N)nc5c4)nc3c2)CC1")
"< 1000 nM"
>>> result("CN1CCN(c2cnc3ccc(-c4ccc5oc(N)nc5c4)nc3c2)CC1")
"< 1000 nM"
>>> result("Nc1nc2cc(-c3ccc4ncc(N5CCC(F)(F)CC5)nc4n3)ccc2o1")
"< 100 nM"
>>> result("Nc1nc2cc(-c3ccc4ncc(N5CCNC(=O)C5)cc4n3)ccc2o1")
"< 100 nM"
>>> result("CC1(C)CN(C2CN(c3cnc4ccc(-c5ccc6oc(N)nc6c5)nc4n3)C2)CCO1")
"< 10000 nM"
>>> result("Nc1nc2cc(-c3ccc4ncc(N5CCC(O)CC5)cc4n3)ccc2o1")
"< 1000 nM"
>>> result("CN1CCN(C2CN(c3cnc4ccc(-c5ccc6oc(N)nc6c5)nc4c3)C2)CC1=O")
"< 100 nM"
>>> result("Nc1nc2cc(-c3ccc4ncc(C5=CCOCC5)nc4n3)ccc2o1")
"< 100 nM"
>>> result("C[C@@H](N)C(=O)N1CCN(c2cnc3ccc(-c4ccc5oc(N)nc5c4)nc3n2)CC1")
"< 1000 nM"
>>> result("C[C@@H]1COCCN1c1cnc2ccc(-c3ccc4oc(N)nc4c3)nc2n1")
"< 100 nM"
>>> result("CC(C)N1CCN(c2cnc3ccc(-c4ccc5oc(N)nc5c4)nc3n2)CC1")
"< 1000 nM"
>>> result("C[C@H](N)C(=O)N1CCN(c2cnc3ccc(-c4ccc5oc(N)nc5c4)nc3n2)CC1")
"< 100 nM"

====

systemName: PI3K γ (p110γ) (Homo sapiens)
Construct: purchased Upstate / Millipore Corporation
test: PI 3-Kinase (human) HTRF assay, PI3K γ
Format: biochemical
conditionContext: read-out: PI3K γ IC50
pIC50: −log10 of the molar value.
observable: pIC50

>>> result("CC(=O)Nc1nc2ccc(-c3ccc4nc(N)oc4c3)cc2s1 [Compound 242]")
"> 7.00"
>>> result("Nc1nc2cc(-c3ccc4ncnc(N5CCC(O)CC5)c4c3)ccc2o1 [Compound 29]")
"> 7.00"
>>> result("Nc1nc2ccc(-c3ccc4ncc(C(=O)N5CCOCC5)n4c3)cc2[nH]1 [Compound 544]")
"< 5.00"
>>> result("Nc1nc2cc(-c3ccc4ncc(C(=O)NCCCN5CCOCC5)n4c3)ccc2o1 [Compound 288]")
"> 5.00"
>>> result("CCN1CCN(C(=O)c2cnc3ccc(-c4ccc5oc(N)nc5c4)cn23)CC1 [Compound 141]")
"> 5.00"
>>> result("Nc1nc2cc(-c3ccc4ncc(N5CCC(O)C5)nc4c3)ccc2o1 (centres unmarked) [Compound 209]")
"> 7.00"
>>> result("CC(C)N1CCN(C2CN(c3cnc4ccc(-c5ccc6oc(N)nc6c5)cc4n3)C2)CC1 [Compound 331]")
"> 5.00"
>>> result("C[C@@H]1CN(c2cnc3ccc(-c4ccc5oc(N)nc5c4)cc3n2)C[C@H](C)O1 [Compound 132]")
"> 5.00"

====

systemName: PI3K α (p110α/p85α) (Homo sapiens)
Construct: purchased Upstate / Millipore Corporation
test: PI 3-Kinase (human) HTRF assay, PI3K α
Assay type: biochemical
conditionContext: read-out: PI3K α IC50
Recorded IC50 values for a group of compounds are listed next.
observable: IC50

>>> result("COc1ncc(-c2ccc3ncn(C4CCN(C(C)C)CC4)c(=O)c3c2)cc1NS(=O)(=O)c1ccccc1")
"< 0.1 µM"
>>> result("Nc1nc2cc(-c3ccc4ncc(-c5ccc(N6CCOCC6)nc5)n4c3)ccc2o1")
"< 0.1 µM"
>>> result("CC(C)Oc1nc(-c2ccc3oc(N)nc3c2)cnc1N")
"< 10 µM"
>>> result("CCN1CCN(c2cnc3ccc(-c4ccc5oc(N)nc5c4)cc3n2)CC1")
"< 0.1 µM"
>>> result("COc1ncc(-c2ccc3ncc(C(=O)N4CCOCC4)n3c2)cc1N")
"< 10 µM"
>>> result("Nc1nsc2c(-c3ccc4ncc(C(=O)N5CCOCC5)n4c3)cccc12")
"< 10 µM"
>>> result("O=C(c1cnc2ccc(-c3cncc(S(=O)(=O)Nc4ccccc4)c3)cn12)N1CCOCC1")
"< 10 µM"
>>> result("CC(=O)N1CCC(Nc2ncnc3ccc(-c4ccc5oc(N)nc5c4)nc23)CC1")
"< 0.1 µM"
